// provenance: patent US9982017B2

procedure.text: Surrogate Activity-Based Plasma Stability Assay (calcium flux EC50 after incubation with 5% rat plasma)
condition.parameters: not told
*1 amine or outer side, *2 acyl side, *3 side chain or, on linkers, in order; H or OH if unused. Where a SMILES comes first, the peptide text is derived from it. Bridges are numbered along the chain shown (N, C = ends). [ ]: non-standard residue; d: D form. pGlu = O=C1CC[C@@H](C(=O)O)N1; CH2COCH2 = O=C(C[*:1])C[*:2]; Nle = CCCC[C@H](N)C(=O)O
measurement.name: half-life (h)

>>> readout_number("CCCC[C@@H]1NC(=O)[C@@H]2CCCN2C(=O)CNC(=O)[C@H](CCCCN)NC(=O)[C@H](Cc2cnc[nH]2)NC(=O)[C@@H](NC(=O)[C@H](CC(C)C)NC(=O)[C@H](CCCNC(=N)N)NC(=O)[C@@H]2CCCN2C(=O)[C@H](CCCNC(=N)N)NC(=O)[C@@H]2CCC(=O)N2)CSCC(=O)CSC[C@@H](C(=O)N[C@@H](Cc2ccccc2)C(=O)O)NC1=O [Example 64] ([pGlu]RPRLCHKGP[Nle]CF-OH; linker 6-12 via CH2COCH2)")
7.58
>>> readout_number("CCCC[C@@H]1NC(=O)[C@@H]2CCCN2C(=O)CNC(=O)[C@H](CCCCN)NC(=O)[C@@H]2CSSC[C@H](NC(=O)[C@@H]3CCCN3C(=O)[C@H](CCCNC(=N)N)NC(=O)[C@@H]3CCC(=O)N3)C(=O)N[C@@H](CC(C)C)C(=O)N[C@@H](CSSC[C@@H](C(=O)N[C@@H](Cc3ccccc3)C(=O)O)NC1=O)C(=O)N2 [Example 28, pE-R-P-C-L-C-C-K-G-P-Nle-C-F-OH] ([pGlu]RPCLCCKGP[Nle]CF-OH; disulfide 4-7, 6-12)")
7.34

* * *

Below, each of the molecules is paired with its reported half-life value.
procedure.text: in vitro
condition.parameters: rat, not told, Surrogate activity-based Plasma stability t½
Where a SMILES comes first, the peptide text is derived from it. Bridges are numbered along the chain shown (N, C = ends). [ ]: non-standard residue; d: D form. The star is where a group is joined. pGlu = O=C1CC[C@@H](C(=O)O)N1; NHPhenethyl = c1ccc(CCN*)cc1; Nle = CCCC[C@H](N)C(=O)O
measurement.name: half-life (h)

>>> readout_number("CCCC[C@@H]1NC(=O)[C@@H]2CCCN2C(=O)CNC(=O)[C@H](CCCCN)NC(=O)[C@H](Cc2c[nH]cn2)NC(=O)[C@@H](NC(=O)[C@H](CC(C)C)NC(=O)[C@H](CCCNC(=N)N)NC(=O)[C@@H]2CCCN2C(=O)[C@H](CCCNC(=N)N)NC(=O)[C@@H]2CCC(=O)N2)CSSC[C@@H](C(=O)N[C@H](Cc2ccccc2)C(=O)O)NC1=O [Example 13, pE-R-P-R-L-C-H-K-G-P-Nle-C-f-OH] ([pGlu]RPRLCHKGP[Nle]C[dF]-OH; disulfide 6-12)")
4.73
>>> readout_number("CCCC[C@@H]1NC(=O)[C@@H]2CCCN2C(=O)CNC(=O)[C@H](Cc2ccccc2)NC(=O)[C@H](Cc2c[nH]cn2)NC(=O)[C@@H](NC(=O)[C@H](CC(C)C)NC(=O)[C@H](CCCNC(=N)N)NC(=O)[C@@H]2CCCN2C(=O)[C@H](CCCNC(=N)N)NC(=O)[C@@H]2CCC(=O)N2)CSSC[C@@H](C(=O)NCCc2ccccc2)NC1=O [Example 19] ([pGlu]RPRLCHFGP[Nle]C-NHPhenethyl; disulfide 6-12)")
0.473
>>> readout_number("CCCC[C@@H]1NC(=O)[C@@H]2CCCN2C(=O)CNC(=O)[C@H](CCCCN)NC(=O)[C@H](Cc2cnc[nH]2)NC(=O)[C@@H](NC(=O)[C@H](CC(C)C)NC(=O)[C@H](CCCNC(=N)N)NC(=O)[C@@H]2CCCN2C(=O)[C@H](CCCNC(=N)N)NC(=O)[C@@H]2CCC(=O)N2)CSSC[C@@H](C(=O)N[C@@H](Cc2ccccc2)C(=O)O)NC1=O [Example 8] ([pGlu]RPRLCHKGP[Nle]CF-OH; disulfide 6-12)")
6.78
